- PROCEDURE TEXT: amyloid nucleation score (Sup35N fusion, yeast selection) (log enrichment); library NNK1; higher = more nucleation; inactive = no reads after selection;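 further: zero at mode of non-aggregating sequences after 7 days selection at 30°C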
Returns T if the recorded amyloid nucleation score is greater than or equal to 0.7, and F otherwise.

// below: answered substances
> print(dat)
           substance  label
1             LPFNVL      T
2           NNLWCSFS      F
3  ISQKNDAMNYYIGMSQM      T

Assess whether reported amyloid nucleation score for SHGAGYRFTEFIHHSGGLPN sits at 0.7 or higher.
F

Assess whether reported amyloid nucleation score for LDCDSSLGRN sits at 0.7 or higher.
T

Assess whether reported amyloid nucleation score for MAGPYLVERRSMWASNARAE sits at 0.7 or higher.
F

Assess whether reported amyloid nucleation score for IGPGTWGLSLYRDRILITTM sits at 0.7 or higher.
F

----------
- PROCEDURE TEXT: amyloid nucleation score (Sup35N fusion, yeast selection) (log enrichment); library NNK1; higher = more nucleation; inactive = no reads after selection
ASSAY ENDPOINT: amyloid nucleation score
# answer = number (no unit)

Given item GLQFSFVEFFSLYVESEDHY , the value recorded as its amyloid nucleation score is 0.332

Given item FNIYSQMYIW , the value recorded as its amyloid nucleation score is 5.32

Given item EMTPLLCATVRKPWKRVMIN , the value recorded as its amyloid nucleation score is -0.311

Given item CMRHHMSQHCIPGGPRCRGA , the value recorded as its amyloid nucleation score is -0.912

Given item WLISLFRDDDRFNKVSKRAA , the value recorded as its amyloid nucleation score is -0.3

Given item VTFLFNFWHVFC , the value recorded as its amyloid nucleation score is 6.95

Given item TVRQTGRVPMTGLIMFW , the value recorded as its amyloid nucleation score is 1.95

----------
- PROCEDURE TEXT: amyloid nucleation score (Sup35N fusion, yeast selection) (log enrichment); library NNK3; higher = more nucleation; inactive = no reads after selection
ASSAY ENDPOINT: amyloid nucleation score

Completed entries (count: 4):
> print(dat)
              substance            assay.endpoint  endpoint.result
1  CGCYSLMFFSMTCNEKLLSL  amyloid nucleation score         inactive
2        IIGPGYFFYLKLYA  amyloid nucleation score            0.549
3  SDMVVKGERGYICILICRLR  amyloid nucleation score         inactive
4     VSNMGSMIVVVSVRCYM  amyloid nucleation score             1.45

Given item CINVFMQEPPPINIRWNCRE , the value recorded as its amyloid nucleation score is 2.54

Given item SVLGRHYVYLLSIVCGVIFG , the value recorded as its amyloid nucleation score is inactive

----------
- PROCEDURE TEXT: amyloid nucleation score (Sup35N fusion, yeast selection) (log enrichment); library NNK1; higher = more nucleation; inactive = no reads after selection
ASSAY ENDPOINT: amyloid nucleation score
# answer = number (no unit)

Completed entries (count: 5):
> print(dat)
              substance            assay.endpoint  endpoint.result
1  LFILPCQVNLHECMVLCLFE  amyloid nucleation score             5.91
2  YSRISKRVSRKGQSRNCHSG  amyloid nucleation score           -0.413
3         SVSEGRVGLYNCG  amyloid nucleation score            0.449
4  DRRCLRYSLNCLLFRSIYYN  amyloid nucleation score            0.652
5  YRDTVGVYYRFIRGYWMCTW  amyloid nucleation score           -0.396

Given item NCVTTNIGFN , the value recorded as its amyloid nucleation score is 0.124

Given item LNLAKPLFSHRLRRFKCSYF , the value recorded as its amyloid nucleation score is 2.08

----------
- PROCEDURE TEXT: amyloid nucleation score (Sup35N fusion, yeast selection) (log enrichment); library NNK2; higher = more nucleation; inactive = no reads after selection
ASSAY ENDPOINT: amyloid nucleation score

> print(dat)
       monomer.sequence            assay.endpoint  endpoint.result
1  DGFMLMFFTITIRFPNALQV  amyloid nucleation score         inactive
2  MWMEVTRPPTGHFRIRGGQA  amyloid nucleation score         inactive
3  YLRLHYAFSGVNNKGIESGC  amyloid nucleation score         inactive

----------
- PROCEDURE TEXT: amyloid nucleation score (Sup35N fusion, yeast selection) (log enrichment); library NNK3; higher = more nucleation; inactive = no reads after selection
ASSAY ENDPOINT: amyloid nucleation score

> print(dat)
              substance  endpoint.result
1           YGSSHYPYNSY         inactive
2  IEVGYITWKSARVWATNSSH         inactive
3  FSYLLYRRNDTCPQALRLRR         inactive
4  RSEVQHKLVSFLSKLIPRAS         inactive
5  ILDAEVFGLISGFMSMHCNA         inactive

Given item IIELYT , the value recorded as its amyloid nucleation score is inactive

Given item HPVKLILILIWPAFERSRCG , the value recorded as its amyloid nucleation score is inactive

Given item PYIRNYSCSGSNQYLWDTSD , the value recorded as its amyloid nucleation score is inactive

Given item LNVGCLWRGDGGNRRAQWDV , the value recorded as its amyloid nucleation score is inactive

Given item HSLVVPIPSPILRVLKE , the value recorded as its amyloid nucleation score is inactive

Given item KRDHMVSLGYSLGSKQRGVG , the value recorded as its amyloid nucleation score is inactive

Given item IIVSRWLWWDIGVSRNW , the value recorded as its amyloid nucleation score is inactive

Given item NLYMLNTQGMSVLISCVGRI , the value recorded as its amyloid nucleation score is 0.996

----------
- PROCEDURE TEXT: amyloid nucleation score (Sup35N fusion, yeast selection) (log enrichment); library NNK1; higher = more nucleation; inactive = no reads after selection
ASSAY ENDPOINT: amyloid nucleation score

Completed entries (count: 3):
> print(dat)
       monomer.sequence            assay.endpoint  endpoint.result
1  SGWSYRRAGRHWMAMMGNKF  amyloid nucleation score            -0.04
2  VPYVISINSMVWVGHRPVLP  amyloid nucleation score             6.13
3  LYKLTEFQAYKVIRPSACCV  amyloid nucleation score            -1.13

Given item SIYEVEGVTLGLEEHNMKGE , the value recorded as its amyloid nucleation score is -0.43

----------
- PROCEDURE TEXT: amyloid nucleation score (Sup35N fusion, yeast selection) (log enrichment); library NNK1; higher = more nucleation; inactive = no reads after selection
Returns Criterion met if the recorded amyloid nucleation score is greater than or equal to 0.2, and Criterion not met otherwise.

> print(dat)
       monomer.sequence              label
1  DLLTWDCLEHDVDMLLVGPN  Criterion not met
2  VVMLNFYCIRNRRVWIVNIC      Criterion met
3  RDAFYRGRTRFNQRRYMYRR  Criterion not met
4  KLLPSKLCNASRFSFFYKES  Criterion not met
5  FEAFFNGHSSREYLVISVRL  Criterion not met

Assess whether reported amyloid nucleation score for IFGITNSMLVFMGYCLIHCL sits at 0.2 or higher.
Criterion not met

Assess whether reported amyloid nucleation score for ERYRFRGIKLHRGDSWRDIC sits at 0.2 or higher.
Criterion met

Assess whether reported amyloid nucleation score for YKVNNFKTFSLWNMFLDSNC sits at 0.2 or higher.
Criterion met

Assess whether reported amyloid nucleation score for RCDSMSCTVYCEGNS sits at 0.2 or higher.
Criterion not met

Assess whether reported amyloid nucleation score for FVLFRLFEFASNIRVTFFF sits at 0.2 or higher.
Criterion not met

Assess whether reported amyloid nucleation score for LLVVSYFITSLSTCMFGYWK sits at 0.2 or higher.
Criterion not met

Assess whether reported amyloid nucleation score for YILSSLPFRHLLGVNICFTA sits at 0.2 or higher.
Criterion not met

----------
- PROCEDURE TEXT: amyloid nucleation score (Sup35N fusion, yeast selection) (log enrichment); library NNK1; higher = more nucleation; inactive = no reads after selection
ASSAY ENDPOINT: amyloid nucleation score

> print(dat)
       monomer.sequence  endpoint.result
1  GSHSGVFRVIKYQILFEVGM         inactive
2           TNMMYVYFKVI         inactive
3  KLLSGRLDTFSGGGDYMCPV         inactive

----------
- PROCEDURE TEXT: amyloid nucleation score (Sup35N fusion, yeast selection) (log enrichment); library NNK1; higher = more nucleation; inactive = no reads after selection
ASSAY ENDPOINT: amyloid nucleation score

> print(dat)
       monomer.sequence  endpoint.result
1            SMIGRSCYEV         inactive
2    SKAWNRAGELVVSCTMVS         inactive
3  KMFTGNSEFFCFLTTVKLDR           -0.068
